# literature pull: Histone acetyltransferase p300 (Homo sapiens, UniProt Q09472) log10 of IC50
# Sequence (Q09472 whole entry): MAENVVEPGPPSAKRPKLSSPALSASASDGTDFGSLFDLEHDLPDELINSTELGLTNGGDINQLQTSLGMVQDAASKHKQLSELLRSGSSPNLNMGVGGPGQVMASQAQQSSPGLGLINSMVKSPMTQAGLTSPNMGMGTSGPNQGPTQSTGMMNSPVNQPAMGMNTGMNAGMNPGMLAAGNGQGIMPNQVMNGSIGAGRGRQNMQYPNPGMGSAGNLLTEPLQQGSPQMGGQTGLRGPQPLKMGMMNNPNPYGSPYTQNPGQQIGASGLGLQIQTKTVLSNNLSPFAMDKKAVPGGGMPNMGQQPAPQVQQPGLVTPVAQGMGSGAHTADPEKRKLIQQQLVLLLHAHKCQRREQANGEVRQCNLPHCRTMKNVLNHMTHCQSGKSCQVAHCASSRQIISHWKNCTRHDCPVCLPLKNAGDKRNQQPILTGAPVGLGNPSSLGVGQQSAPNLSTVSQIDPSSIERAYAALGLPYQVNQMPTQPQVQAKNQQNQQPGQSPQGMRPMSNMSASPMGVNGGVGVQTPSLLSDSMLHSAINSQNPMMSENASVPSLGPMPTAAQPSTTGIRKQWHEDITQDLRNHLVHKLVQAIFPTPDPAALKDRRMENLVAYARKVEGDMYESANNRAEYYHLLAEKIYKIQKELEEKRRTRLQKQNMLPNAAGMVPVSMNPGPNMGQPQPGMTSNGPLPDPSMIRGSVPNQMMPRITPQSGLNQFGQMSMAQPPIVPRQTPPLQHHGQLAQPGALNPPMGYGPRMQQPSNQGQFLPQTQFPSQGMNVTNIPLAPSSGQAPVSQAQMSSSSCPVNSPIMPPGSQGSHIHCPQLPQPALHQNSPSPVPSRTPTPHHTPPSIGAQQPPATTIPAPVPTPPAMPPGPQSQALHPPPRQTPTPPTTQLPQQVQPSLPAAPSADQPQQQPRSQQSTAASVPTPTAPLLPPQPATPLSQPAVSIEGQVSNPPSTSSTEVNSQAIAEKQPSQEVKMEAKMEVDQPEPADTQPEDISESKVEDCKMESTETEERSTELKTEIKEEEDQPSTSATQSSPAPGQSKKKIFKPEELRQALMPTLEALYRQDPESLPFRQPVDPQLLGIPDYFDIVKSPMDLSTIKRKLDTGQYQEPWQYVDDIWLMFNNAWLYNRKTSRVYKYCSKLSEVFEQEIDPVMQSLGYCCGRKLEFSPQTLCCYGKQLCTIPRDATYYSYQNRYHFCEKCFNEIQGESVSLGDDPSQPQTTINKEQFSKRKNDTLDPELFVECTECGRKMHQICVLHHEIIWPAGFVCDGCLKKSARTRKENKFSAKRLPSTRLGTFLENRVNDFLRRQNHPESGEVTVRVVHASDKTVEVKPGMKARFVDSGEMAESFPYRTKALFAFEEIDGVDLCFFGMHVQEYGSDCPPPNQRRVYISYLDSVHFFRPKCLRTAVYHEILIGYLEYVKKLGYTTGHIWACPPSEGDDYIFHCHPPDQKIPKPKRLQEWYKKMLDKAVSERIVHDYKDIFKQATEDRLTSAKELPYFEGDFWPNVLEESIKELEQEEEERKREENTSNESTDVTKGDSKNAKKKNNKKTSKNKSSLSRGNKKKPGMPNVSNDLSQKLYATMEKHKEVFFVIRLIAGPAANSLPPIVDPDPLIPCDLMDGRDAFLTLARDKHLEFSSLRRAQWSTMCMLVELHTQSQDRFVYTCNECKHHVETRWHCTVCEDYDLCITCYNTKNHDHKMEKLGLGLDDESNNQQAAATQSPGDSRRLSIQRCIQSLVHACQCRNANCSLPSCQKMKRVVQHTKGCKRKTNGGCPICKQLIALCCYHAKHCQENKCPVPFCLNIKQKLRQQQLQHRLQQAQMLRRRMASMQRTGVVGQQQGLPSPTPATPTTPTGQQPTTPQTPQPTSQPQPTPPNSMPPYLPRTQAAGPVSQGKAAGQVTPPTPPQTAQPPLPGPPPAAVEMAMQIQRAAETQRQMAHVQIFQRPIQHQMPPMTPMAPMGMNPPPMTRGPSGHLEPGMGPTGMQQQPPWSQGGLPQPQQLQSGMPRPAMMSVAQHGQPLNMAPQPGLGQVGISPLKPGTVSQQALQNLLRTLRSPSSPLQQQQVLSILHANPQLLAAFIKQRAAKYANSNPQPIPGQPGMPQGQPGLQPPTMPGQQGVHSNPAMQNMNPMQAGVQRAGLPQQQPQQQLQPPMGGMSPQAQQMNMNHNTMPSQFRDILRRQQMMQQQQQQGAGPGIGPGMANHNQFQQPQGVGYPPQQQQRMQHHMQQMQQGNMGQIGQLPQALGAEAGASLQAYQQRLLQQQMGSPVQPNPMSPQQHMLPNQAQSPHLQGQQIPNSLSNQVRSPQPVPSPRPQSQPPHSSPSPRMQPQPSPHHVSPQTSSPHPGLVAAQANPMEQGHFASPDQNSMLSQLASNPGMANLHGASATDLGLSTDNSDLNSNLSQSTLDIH
Log scale reminder: IC50 in µM, then log10 taken.

IN: Give its log10 of IC50 value. Item: CC(=O)n1cc(C(=O)Nc2cc(COC3CCCCO3)cc(C(=O)O)c2)c2ccccc21 (stereo not given)
OUT: 0.40

IN: Query COc1cc(/C=C2\CCC/C(=C\c3ccc(O)c(OC)c3)C2=O)ccc1O next
OUT: 2.05

IN: Query O=C1/C(=C/c2ccc(O)c(Br)c2)CCC/C1=C\c1ccc(O)c(Br)c1 next
OUT: 0.70

IN: Query Cc1cc(-c2cc(NS(C)(=O)=O)ccc2OCC2CC2)n2cc[nH]c(=O)c12 next
OUT: 1.40

IN: Query O=C(/C=C(O)/C=C/c1ccc(O)c(Br)c1)/C=C/c1ccc(O)c(Br)c1 next
OUT: 1.52

IN: Query CCS(=O)(=O)Nc1ccc(Oc2ccc(F)cc2F)c(-c2cn(C)c(=O)c3[nH]ccc23)c1 next
OUT: -1.20

IN: Query CCS(=O)(=O)Cc1ccc(Oc2ccc(F)cc2F)c(-c2cc(C)c3c(=O)[nH]ccn23)c1 next
OUT: 1.27

IN: Query COc1ccc(CN2C(=O)/C(=C3\SC(=S)N(CCCCCC(=O)O)C3=O)c3ccccc32)cc1 next
OUT: 1.79

IN: Query O=C1/C(=C/c2ccc(O)c(C(=O)O)c2)CCC/C1=C\c1ccc(O)c(C(=O)O)c1 next
OUT: 2.23

IN: Query CC(=O)Nc1ccc(/N=N/c2c(S(=O)(=O)O)cc3cc(NC(=O)Nc4ccc5c(O)c(/N=N/c6ccccc6)c(S(=O)(=O)O)cc5c4)ccc3c2O)cc1 next
OUT: 1.33

----------
# literature pull: Histone acetyltransferase p300 (Homo sapiens, UniProt Q09472) pIC50
// returns pIC50 (minus log10 of molar concentration), number only

IN: Give its pIC50 value. Item: CC(=O)n1cc(C(=O)Nc2cccc(C(=O)O)c2)c2ccccc21
OUT: 5.26

IN: Query COc1ccc2c(c1)c(C(=O)Nc1cc(C(=O)O)cc(-c3ccco3)c1)cn2C(C)=O next
OUT: 5.75

IN: Query CC(C)COc1cc(C(=O)Nc2ccc(C(=O)Nc3ccc(C(=O)O)cc3OC(C)C)cc2OCC(C)C)ccc1N next
OUT: 5.04

IN: Query COC(=O)C1CC2CSCN2C12C(=O)Nc1ccc(NCc3ccc([N+](=O)[O-])cc3OCC(=O)O)cc12 (stereo unspecified) next
OUT: 4.35

----------
# literature pull: Histone acetyltransferase p300 (Homo sapiens, UniProt Q09472) log10(IC50)
Log scale reminder: IC50 in µM, then log10 taken.

IN: Give its log10(IC50) value. Item: CCS(=O)(=O)Cc1cnc(Oc2ccc(F)cc2F)c(-c2cc(C)c3c(=O)[nH]ccn23)c1
OUT: 0.59

IN: Query CC(=O)n1cc(C(=O)Nc2cc(C(=O)O)ccc2F)c2ccccc21 next
OUT: 0.65

IN: Query Cc1cc(-c2cc(NS(C)(=O)=O)ccc2Oc2ccc(F)cc2F)n2cc[nH]c(=O)c12 next
OUT: 1.25

IN: Query O=C(Nc1ccc2c(O)cc(S(=O)(=O)O)cc2c1)Nc1ccc2c(O)cc(S(=O)(=O)O)cc2c1 next
OUT: 2.07

IN: Query Cc1cc(-c2cc(NS(C)(=O)=O)ccc2OCC(C)(C)C)n2cc[nH]c(=O)c12 next
OUT: 1.43

----------
# literature pull: UniProt:Q09472 IC50

IN: Give its IC50 value. Item: Cc1cc(-c2cc(S(=O)(=O)NC(C)(C)C)cnc2Oc2ccc(F)cc2F)n2cc[nH]c(=O)c12
OUT: > 100 µM

IN: Query CC1=NN(c2ccc(C(=O)NCCOCCOCC(=O)NCCC(=O)Nc3cc(C(=O)Nc4cn(C)c(C(=O)Nc5cn(C)c(C(=O)Nc6cc(C(=O)NCCCC(=O)Nc7cc(C(=O)Nc8cc(C(=O)Nc9cc(C(=O)Nc%10cc(C(=O)NCCCN(C)C)n(C)c%10)n(C)c9)n(C)c8)n(C)c7)n(C)c6)n5)n4)n(C)c3)cc2)C(=O)/C1=C/c1ccc(-c2cc(C)c(C)cc2[N+](=O)[O-])o1 next
OUT: 3.9 to 4.2 µM

IN: Query CC1=NN(c2ccc(C(=O)NCCC(=O)NCCC(=O)Nc3cc(C(=O)Nc4cn(C)c(C(=O)Nc5cn(C)c(C(=O)Nc6cc(C(=O)NCCCC(=O)Nc7cc(C(=O)Nc8cc(C(=O)Nc9cc(C(=O)Nc%10cc(C(=O)NCCCN(C)C)n(C)c%10)n(C)c9)n(C)c8)n(C)c7)n(C)c6)n5)n4)n(C)c3)cc2)C(=O)/C1=C/c1ccc(-c2cc(C)c(C)cc2[N+](=O)[O-])o1 next
OUT: 3.9 to 4.2 µM

IN: Query C=C1[C@@H](O)CC[C@@]2(C)[C@H]1C[C@]1(O)C(=O)CC[C@H]([C@H](C)CC[C@@H](C)C(C)C)[C@@]3(C)CC[C@]24O[C@@]413 next
OUT: > 10 µM

IN: Query Cc1cc(-c2cc(S(=O)(=O)N(C)C)ccc2Oc2ccc(F)cc2F)n2cc[nH]c(=O)c12 next
OUT: > 100 µM
